PROTOCOL DESCRIPTION: folding stability dG unfold from chymotrypsin proteolysis; higher = more stable
# folding stability dG unfold >= 2 kcal/mol gives yes (1), anything below gives no (0)

SAGGSAGGSAGNSVTILPIPETDKYLVVVSDNSGKFTVFDVDSSDLEDVVKALPSNYTVTSAGGSAGGSAGG [r11_569_TrMRF] = no (0)

Task: I'd appreciate it if you could say whether RVEVLENGEVIAVFPAEFLADIPPDDPLLLTLTLTLPDGYRVYVTFYNLPDGTVVAIARVEPVEVGPELAAS [r1_394_TrMRF] has folding stability dG unfold at least equal to 2 kcal/mol.
Output: yes (1)
